B1: TPR t1 (parent)
chain: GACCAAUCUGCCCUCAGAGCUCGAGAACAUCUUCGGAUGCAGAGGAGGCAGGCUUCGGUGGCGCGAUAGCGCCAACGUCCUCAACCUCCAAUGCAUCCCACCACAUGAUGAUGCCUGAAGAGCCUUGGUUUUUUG

Variants of: B1
Assay details: polymerase ribozyme fitness, log enrichment relative to wild type (log ratio); higher = more active; in vitro selection for triplet polymerase activity
Please mark Y if the recorded polymerase ribozyme fitness (log ratio) is equal to or greater than -2, and N if it falls below.

Use these answered entries as a reference point.
Sequence	Label class
GACCAAUCUGGCCUCAGAGCUCGAGAUCAUCUUCGGAUGCAGAGGAGGAAGGCUUCGGUGCCGCGAUAGCGCCAUCGUCCUCAGCCUCCAAUGCAUCCCACCACAUGAUGAUGCCUGAAGAGCCUUGGUUUUUUG	N
GACCAAUCUGCCCACAGAGCUCGAGAACAUCUUCGGAUGCAGAGGAGGCAGGCUUCGGUUGCGCGAUAGCGCCAACGCCCUCAACCUCCAAUGCAUCCCACCACAUGAUGAUGCCUGAAGAGCCUUGGUUUUUUG	N

Exam item: Hi, just wondering whether GACCAAUCUGCCCUCAGAGUUCGAGAACAUCUUCGGAUGCAGAGGAGGCAGGCUUCGGUGACGCGAUAGCGCCAACGUCCUCAACCUACAAUGCAUCCCACCACAUGAUGAUGCCUGAAGAGCCUUGGUUUUUUG shows polymerase ribozyme fitness (log ratio) of -2 or higher.
Marked response: Y

Exam item: Please tell me: is the variant GACCAAUCUGCCCUCAGAGCUCGAGAACAUCUUCGGAUGCAGAGGAGGUAGGCUUCGAUGGCGCGAUAGCGCCAACGUCCUCAACCUCCAAUGCAUCCCACCACAUGAUGAUGCCUGAAGAGCCAUGGUUUUUUG at or over -2 in terms of polymerase ribozyme fitness (log ratio)?
Marked response: Y

Exam item: Decide: is the reported value of polymerase ribozyme fitness (log ratio) for GACCAAUCUGCCCUCUGAGCUCGAGAACAUCUUCGGAUGCAGAGGAGGCAGGCUUCGAUGGCGCGAUAGCGUCAACGUCCUCAACCUCCAAUGCAUCCCACCACAUGAUGAUGCCUGAAGAGCCUUGGUUUUUUG equal to or greater than -2?
Marked response: Y

Exam item: Dear colleague, could you confirm whether GACCAAUCUGCCCUCAGAGCUCGAGUACAUCUUCGGAUGCAGAGGAGGCAGGCUUCGGUGGCGCGGUAGCGCCAACGUCCUCAACCUCCAAUGCAUCCCACCACAUGAUGAGGCCUGAAGAGCCUUGGUUUUUUG has polymerase ribozyme fitness (log ratio) at or above -2?
Marked response: N

Exam item: Tell me whether polymerase ribozyme fitness (log ratio) is at least -2 here: GUCCAAUCUGCCCUCAGAGCUCUAGAACAUCUUCGGAUGCAGAGGAGGCAGGCUUCGGUUGCGCGAUAGCGCCAACGUUCUCAACCUCCAAUGCAUCCCACCACAUGAUAAUGCCUGAAGAGCCUUGGUUUUUUG
Marked response: N

Exam item: Reported polymerase ribozyme fitness (log ratio) at or above -2? GACCAAUCUGCCCUCAGACCUCGAGAACAUGUUCGGAUGCAGAGGAGGCAGGCUUCGGUGGCGCGAUAGCGGCAACGUCCUCAACCUCCAAUGCAUCCCACCACAUGAUUAUGCCUGAAGAGCCUUGGUUAUUUG
Marked response: N

Exam item: Item GCCCAAUCUGCCCUCAGAGCUCGAGAACAUCUUCGGAUGCAGAGGAGGCAGGCUUCGGUGGCGCGAUAGCGCCAACGCCCUCAACCUCCAAUGCAUCCCACCACAUGAUGAUGCCUGAAGAGCCUUGGUUUUUUG with polymerase ribozyme fitness (log ratio) of -2 or above?
Marked response: Y

Exam item: For this variant, is measured polymerase ribozyme fitness (log ratio) -2 or higher? GACCAAUCUGCCCUCAGAGGUCGAGAACAUCUUCGGAUGCUGAGGAGGCAGGCUUCGGUGGCGCGAUAGCGCCAACGUCCUCAACCUCCAAUGCAUCCCACCACAUGAUGAUGCUUGAAGAGCCUUGGUUUUUUG
Marked response: N

Exam item: Does the variant GACCAAUCUGCCCUCAGAGCUCGAGAACAUCUUCGGAUGCAGAGGAGGCAGGCUUGGGUGGCGCGAUAGCGCCAACGUCCUCAACCUCCAAUGCAUCCCACCACAUGAUGAUGGCUGAAGAGCCUUGGUUUUUUG have recorded polymerase ribozyme fitness (log ratio) that is -2 or more?
Marked response: N
